Listed here are molecules together with their documented IC50.
Biological target: CDK7/CycH/Mat1 (Homo sapiens, UniProt P50613)
Sequence (P50613 whole entry): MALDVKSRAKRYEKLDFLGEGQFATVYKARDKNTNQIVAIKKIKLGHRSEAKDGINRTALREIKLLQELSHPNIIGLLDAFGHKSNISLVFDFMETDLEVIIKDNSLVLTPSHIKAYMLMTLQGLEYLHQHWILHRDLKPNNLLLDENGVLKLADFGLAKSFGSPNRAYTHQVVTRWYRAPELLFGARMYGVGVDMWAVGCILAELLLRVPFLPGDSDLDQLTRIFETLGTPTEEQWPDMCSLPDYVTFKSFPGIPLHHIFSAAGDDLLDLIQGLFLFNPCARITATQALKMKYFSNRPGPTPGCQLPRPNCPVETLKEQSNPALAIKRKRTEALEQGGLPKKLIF
Test: CDK7 Enzymatic Activity Assay (Lance Kinase Activity Assay, FRET)
Type: biochemical
Settings: CDK7/CycH/Mat1, 25 μM ATP final; class ranges; read-out: CDK7: IC50 [nM] for CDK7 inhibition

Please review the following examples before continuing.
CC(C)c1cnn2c(NCc3ccccc3-n3cccn3)nc(C(=O)N(C)CCN3CCCC3)nc12    > 25 nM
CC(C)c1cnn2c(NCc3ccccc3-n3cccn3)nc(N3CCCC4(CCCNC4)C3)nc12 (stereo not shown)    10 to 25 nM
CC(C)c1cnn2c(NCc3ccccc3-c3cccs3)nc([S+]([O-])C3CCNCC3)nc12 (stereo not shown)    < 5 nM

// below: IC50 requested for another molecule
Q: # get_value(readout='IC50', item= "CC(C)c1cnn2c(NCc3ccccc3-c3nnnn3C)nc(O[C@@H]3CCCNC3)nc12" )
A: < 5 nM

---

Entries and their measured IC50 follow.
Target: CDK7/CycH/Mat1 (Homo sapiens, UniProt P50613)
Experiment: CDK7 Enzymatic Activity Assay (Lance Kinase Activity Assay, FRET)
Assay type: biochemical
Conditions: CDK7/CycH/Mat1, 25 μM ATP final; class ranges; read-out: CDK7: IC50 [nM] for CDK7 inhibition

CC(C)c1cnn2c(NCc3ccccc3-n3cccn3)nc(N3CCC4(CCNC4)C3)nc12 (centres unmarked) [(VIII-03)]    < 5 nM
CC(C)c1cnn2c(NCc3ccccc3-c3nnn(C)n3)nc(O[C@@H]3CCCNC3)nc12 [(VII-37)]    < 5 nM
Cc1ccc(CNc2nc(O[C@@H]3CCCNC3)nc3c(C(C)C)cnn23)c(OCC(C)C)c1 [(VII-115)]    > 25 nM
CC(C)c1cnn2c(NCc3ccccc3NC(=O)NCc3ccccc3)nc(O[C@@H]3CCCNC3)nc12 [(VII-113)]    10 to 25 nM
CC(C)c1cnn2c(NCc3ccccc3-c3ccco3)nc(O[C@@H]3CCCNC3)nc12 [(VII-50)]    < 5 nM
CC(C)c1cnn2c(NCc3ccccc3N(C)C)nc(OC3CCN(C)CC3)nc12 [(VII-54)]    5 to 10 nM
CC(C)c1cnn2c(NCc3cccc4cccnc34)nc(O[C@@H]3CCCNC3)nc12 [(VII-35)]    < 5 nM
CC(C)c1cnn2c(NCc3ccccc3-n3cccn3)nc(SC3CCNCC3)nc12 [(X-9)]    10 to 25 nM

Q: Entry CC(C)c1cnn2c(NCc3ccccc3-c3ccccn3)nc(O[C@@H]3CCCNC3)nc12 [(VII-34)] : reported IC50 = ?
A: < 5 nM

Q: What do we get for CC(C)c1cnn2c(NCc3ccccc3-n3cccn3)nc(CN3CC(N4CCCC4=O)C3)nc12 [(XXX-8)] ?
A: > 25 nM

Q: Similarly, CC(C)c1cnn2c(NCc3ccccc3-n3cccn3)nc(C(=O)NCC3CCNC3)nc12 (centres unmarked) [(XII-3)] ?
A: < 5 nM

---

IC50 for assorted molecules
Target: CDK9/Cyclin T1 (Homo sapiens, UniProt P50750)
Sequence (P50750 whole entry): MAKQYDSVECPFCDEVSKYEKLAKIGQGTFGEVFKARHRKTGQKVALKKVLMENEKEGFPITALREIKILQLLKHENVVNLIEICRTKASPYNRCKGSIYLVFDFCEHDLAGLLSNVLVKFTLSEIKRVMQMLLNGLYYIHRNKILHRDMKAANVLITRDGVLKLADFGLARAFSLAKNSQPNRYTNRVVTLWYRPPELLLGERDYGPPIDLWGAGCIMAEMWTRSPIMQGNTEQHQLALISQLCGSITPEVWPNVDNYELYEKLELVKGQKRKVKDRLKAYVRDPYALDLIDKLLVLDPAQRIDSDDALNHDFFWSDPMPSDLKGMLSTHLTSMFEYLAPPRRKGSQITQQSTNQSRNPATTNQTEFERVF
Sequence (O60563 whole entry partner): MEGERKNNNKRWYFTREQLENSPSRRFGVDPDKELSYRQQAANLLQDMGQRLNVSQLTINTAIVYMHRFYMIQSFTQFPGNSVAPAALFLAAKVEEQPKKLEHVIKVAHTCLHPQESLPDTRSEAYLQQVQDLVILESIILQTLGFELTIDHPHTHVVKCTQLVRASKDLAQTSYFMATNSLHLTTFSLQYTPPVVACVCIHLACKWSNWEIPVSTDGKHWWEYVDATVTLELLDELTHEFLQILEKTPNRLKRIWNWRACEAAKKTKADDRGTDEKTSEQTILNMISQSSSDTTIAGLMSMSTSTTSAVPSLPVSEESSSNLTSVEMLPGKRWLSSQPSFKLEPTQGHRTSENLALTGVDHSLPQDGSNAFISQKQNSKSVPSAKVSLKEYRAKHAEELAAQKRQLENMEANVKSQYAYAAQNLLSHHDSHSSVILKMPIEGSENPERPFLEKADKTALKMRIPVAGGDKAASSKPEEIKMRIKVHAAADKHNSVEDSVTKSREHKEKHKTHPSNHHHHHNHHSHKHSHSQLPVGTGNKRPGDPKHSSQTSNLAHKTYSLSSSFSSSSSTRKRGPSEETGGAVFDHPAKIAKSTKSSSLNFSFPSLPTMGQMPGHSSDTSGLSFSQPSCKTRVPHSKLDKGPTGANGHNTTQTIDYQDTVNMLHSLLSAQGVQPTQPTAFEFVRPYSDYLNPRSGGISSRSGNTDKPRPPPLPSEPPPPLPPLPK
Assay: CDK9 Enzymatic Activity Assay (Lance Kinase Activity Assay, FRET)
Assay type: biochemical
Conditions: Table 5B, class symbols per IC50 [nM] ranges of b581; read-out: CDK9: Selectivity of CDK7 inhibition over CDK9 inhibition
Method: This protocol describes how the Lance Kinase Activity Assay was performed to determine IC50 values of compounds of general formula (I) against CDK/Cyclin complexes. […] It is detected by using a specific EU-labeled anti-phospho peptide antibody. […] For positive controls, 2 μl of DMSO working solution were mixed with 6 μl CDK9/cyclin T1/substrate working solution and 2 μl ATP working solution. Positive and negative controls were calculated from at least 8 different wells. […]

For orientation, consider the following solved cases.
CC(C)c1cnn2c(NCc3ccccc3-n3cccn3)nc(NC3CCNC3)nc12 (stereo not drawn)    > 2500 nM
CC(C)c1cnn2c(NCc3ccccc3C(F)(F)F)nc(OC3CCN(C)CC3)nc12 [(VII-58)]    > 2500 nM
CC(C)c1cnn2c(NCc3ccccc3OS(=O)C(C)(C)C)nc(O[C@@H]3CCCNC3)nc12 (stereo partly drawn)    50 to 500 nM
Cc1ccc(CNc2nc(O[C@@H]3CCCNC3)nc3c(C(C)C)cnn23)c(OC2CCOC2)c1 (stereo partly drawn)    > 2500 nM
CC(C)c1cnn2c(NCc3ccccc3-n3cccn3)nc(NCC3CCNC3)nc12 (stereo not drawn)    > 2500 nM

Q: Give its IC50 value. Item: "CC(C)c1cnn2c(NCc3ccccc3-n3cccn3)nc(NCCCN3CCOCC3)nc12"
A: > 2500 nM

Q: Please give the result for "CC(C)c1cnn2c(NCc3ccccc3-c3cccs3)nc(OC3CCNCC3)nc12" too.
A: 500 to 2500 nM

Q: What about this molecule? "CC(C)c1cnn2c(NCc3ccccc3-c3cccs3)nc(O[C@@H]3CCNC3)nc12"
A: 500 to 2500 nM

Q: Next record, please: "Cc1nccn1-c1ccccc1CNc1nc(OC2CCNCC2)nc2c(C(C)C)cnn12"
A: > 2500 nM

Q: Further, for "CC(C)c1cnn2c(NCc3ccccc3N(C)C)nc(OC3CCN(C)CC3)nc12" ?
A: 50 to 500 nM

Q: Another molecule to look at: "CC(C)c1cnn2c(NCc3ccccc3-n3cccn3)nc(CNCCN3CCOCC3)nc12"
A: > 2500 nM

Q: Continue with "CC(C)c1cnn2c(NCc3ccccc3-n3cccn3)nc(NCCN)nc12"
A: > 2500 nM

---

Molecular target: CDK2/CycA (Homo sapiens, UniProt P24941)
Construct: purchased Proqinase
Assay: CDK2 Enzymatic Activity Assay (Lance Kinase Activity Assay, FRET)
Assay type: biochemical
Conditions: Table 5B, class symbols per IC50 [nM] ranges of b581; read-out: CDK2: Selectivity of CDK7 inhibition over CDK2 inhibition
recordedMetric: IC50

CC(C)c1cnn2c(NCc3ccccc3-n3cccn3)nc(NC3CCNC3)nc12 (stereo not shown)    50 to 500 nM
CC(C)c1cnn2c(NCc3ccccc3-n3cccn3)nc(CNCCN3CCCC3)nc12    > 2500 nM
CC(C)c1cnn2c(NCc3ccccc3-n3cccn3)nc(C(=O)N3CC4(CNC4)C3)nc12    > 2500 nM
CC(C)Oc1ccccc1CNc1nc(O[C@@H]2CCNC2)nc2c(C(C)C)cnn12    500 to 2500 nM
CC(C)c1cnn2c(NCc3ccccc3-n3cccn3)nc(NCCN)nc12    500 to 2500 nM

Q: For the compound shown here, "CC(C)c1cnn2c(NCc3ccccc3-n3cccn3)nc(NCCN3CCOCC3)nc12" , give the reported IC50.
A: > 2500 nM

Q: Item: "CC(C)Oc1ccccc1CNc1nc(N[C@@H]2CCCNC2)nc2c(C(C)C)cnn12"
A: 500 to 2500 nM

---

Target: CDK7/CycH/Mat1 (Homo sapiens)
Test: CDK7 Enzymatic Activity Assay (Lance Kinase Activity Assay, FRET)
Type: biochemical
Settings: CDK7/CycH/Mat1, 25 μM ATP final; class ranges; read-out: CDK7: IC50 [nM] for CDK7 inhibition
Method: This protocol describes how the Lance Kinase Activity Assay was performed to determine IC50 values of compounds of general formula (I) against CDK/Cyclin complexes. […] It is detected by using a specific EU-labeled anti-phospho peptide antibody. […] For positive controls, 2 μl of DMSO working solution were mixed with 6 μl CDK7/CycH/Mat1/substrate working solution and 2 μl ATP working solution. Positive and negative controls were calculated from at least 8 different wells. […]
recordedMetric: IC50

Would you please look over these solved cases?
CC(C)COC(=O)Oc1ccccc1CNc1nc(O[C@@H]2CCCNC2)nc2c(C(C)C)cnn12    10 to 25 nM
CC(C)c1cnn2c(NCc3ccccc3-n3cccn3)nc(N3CCC34CCNCC4)nc12    < 5 nM

Q: Write down the reported IC50 of "CC(C)c1cnn2c(NCc3ccccc3-n3cccn3)nc(N(C)CCN3CCCC3)nc12" , test system: CDK7/CycH/Mat1 (Homo sapiens).
A: 10 to 25 nM

Q: // same read-out, input: "CC(C)c1cnn2c(NCc3cccc(F)c3-n3cccn3)nc(O[C@@H]3CCCNC3)nc12"
A: < 5 nM

Q: Same question for "CC(C)c1cnn2c(NCc3ccccc3-n3cccn3)nc(NCCCN)nc12" please.
A: > 25 nM

Q: Continue with "CC(C)c1cnn2c(NCc3ccccc3-n3cncn3)nc(OC3CCN(C)CC3)nc12"
A: < 5 nM

Q: // next record CC(C)c1cnn2c(NCc3ccccc3C3CC3)nc(O[C@@H]3CCCNC3)nc12 (stereo in doubt)
A: 10 to 25 nM

---

Target: CDK2/CycA (Homo sapiens)
Construct: purchased Proqinase
Experiment: CDK2 Enzymatic Activity Assay (Lance Kinase Activity Assay, FRET)
Format: biochemical
Conditions: Table 5B, class symbols per IC50 [nM] ranges of b581; read-out: CDK2: Selectivity of CDK7 inhibition over CDK2 inhibition
# maps each entry to its IC50

Worked examples, 3 compounds total:
CC(C)c1cnn2c(NCc3ccccc3-n3cccn3)nc(OC3CCN(C)CC3)nc12 [(VII-73)]    500 to 2500 nM
COC(=O)C(CN)Nc1nc(NCc2ccccc2-n2cccn2)n2ncc(C(C)C)c2n1 (stereo not drawn) [(VIII-055)]    > 2500 nM
CC(C)c1cnn2c(NCc3ccccc3C(N)=O)nc(O[C@@H]3CCCNC3)nc12 [(VII-096)]    50 to 500 nM

Q: Look up IC50 for this compound: CC(C)c1cnn2c(NCc3ccccc3OC(F)F)nc(OC3CCN(C)CC3)nc12 [(VII-72)]
A: 50 to 500 nM

Q: How about this compound: CC(C)c1cnn2c(NCc3ccccc3-n3cncn3)nc(OC3CCN(C)CC3)nc12 [(VII-74)]
A: 50 to 500 nM

Q: Item: CC(C)c1cnn2c(NCc3cccc4[nH]ncc34)nc(O[C@@H]3CCCNC3)nc12 [(VII-36)]
A: < 50 nM

Q: Param item: CC(C)c1cnn2c(NCc3cccc4nonc34)nc(N3CCC4(CCCN4)CC3)nc12 [(VIII-36)]
A: > 2500 nM

Q: Next: CC(C)c1cnn2c(NCc3ccccc3-n3cccn3)nc(OC3CNC3)nc12 [VII-141]
A: 500 to 2500 nM

Q: Now the compound CC(C)c1cnn2c(NC(C)c3ccccc3-n3cccn3)nc(O[C@@H]3CCCNC3)nc12 (stereo partly drawn) [(VII-06)]
A: > 2500 nM

Q: Another compound to check: CC(C)c1cnn2c(NCc3ccccc3-n3cccn3)nc([S+]([O-])C3CCNCC3)nc12 (stereo not drawn) [(X-1)]
A: 50 to 500 nM

Q: Same question for CC(C)c1cnn2c(NCc3ccccc3-n3cccn3)nc(OC3COC4(CCNCC4)C3)nc12 (stereo not drawn) [(VII-121)] please.
A: > 2500 nM

Q: Now this one: Cc1ccc(CNc2nc(O[C@@H]3CCCNC3)nc3c(C(C)C)cnn23)c(OCC(C)C)c1 [(VII-115)]
A: > 2500 nM

Q: Another compound to check: CC(C)c1cnn2c(NCc3ccccc3-c3cccs3)nc(O[C@@H]3CCCNC3)nc12 [(VII-12)]
A: < 50 nM
